# System: 354836-022-R-J1-PDC multicell spheroid viability;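 note: spheroids exposed to agents for seven days before the viability read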
# METHOD_NOTES: Anticancer human tumor 354836-022-R-J1-PDC patient-derived head and neck squamous cell carcinoma cell line growth inhibition [PI3K]
# MEASUREMENT_CONTEXT: second compound 0.316 µM; first compound 0.1 µM; active compounds read low
API: label(entry) gives label 1 if the entry's viability, T/C is strictly smaller than 80%; on equality or larger values it gives label 0.

# MOLECULE, CATEGORY
records = [
    ("CC(Cn1ccc(-c2ccc(C#N)c(Cl)c2)n1)NC(=O)c1cc(C(C)O)[nH]n1 (stereo unspecified) + CC(Nc1ncnc2nc[nH]c12)c1cc2cccc(Cl)c2c(=O)n1-c1ccccc1", "label 0"),
]

Enquiry: Just wondering, is viability, T/C of CC(=O)c1c(C)c2cnc(Nc3ccc(N4CCNCC4)cn3)nc2n(C2CCCC2)c1=O + Cc1nc(NC(=O)N2CCCC2C(N)=O)sc1-c1ccnc(C(C)(C)C(F)(F)F)c1 below 80%?
Return: label 0

Enquiry: Just wondering, is viability, T/C of CCCS(=O)(=O)Nc1ccc(F)c(C(=O)c2c[nH]c3ncc(-c4ccc(Cl)cc4)cc23)c1F + CC(Nc1ccc2c(c1)OCCn1cc(N3C(=O)OCC3C(F)F)nc1-2)C(N)=O below 80%?
Return: label 1
